# Test system: human hepatoma cells (HEP-G2)
# experimentalDetails: Inhibition of 14C-acetate incorporation in digitonin-precipitatable steroids in HEP-G2 cells
# Type: cell-based
# protocolConditions: Homo sapiens, HepG2, 10^-8 mol/l
Please mark 1.0 if the recorded percent change in 14C-acetate incorporation into sterols at 0.01 µM is equal to or greater than -50%, and 0.0 if it falls below.

>>> classname("Cc1cc(C=C2CCN(C(=O)c3ccc(Cl)cc3)CC2)ccc1C1=NCCO1")
1.0
>>> classname("O=S(=O)(c1ccc(Cl)cc1)N1CCC(=Cc2ccc(C3=NCCN3)cc2)CC1")
1.0
>>> classname("O=S(=O)(c1ccc(Cl)cc1)N1CCC(=Cc2ccc(C3=NCCO3)cc2)CC1")
0.0
>>> classname("O=C(c1ccc(C(F)(F)F)cc1)N1CCC(=Cc2ccc(C3=NCCO3)cc2)CC1")
0.0

Where these numbers come from: patent US5466687A
